FYI, the data here is from PubChem BioAssay (NCI).

Tested on: OVCAR-5 ovarian
Assay: NCI-60 one-dose screen, 48 h
Conditions: 10 µM unless noted
Protocol: Growth inhibition of the OVCAR-5 human tumor cell line is measured as a screen for anti-cancer activity. Cells are grown in 96 well plates and exposed to the test compound for 48 hours. Compounds are tested at a single concentration, which is 10^-5 M for most compounds. The reported endpoint is percent growth (GI% or GIPRCNT), where numbers from 0 - 100% represent growth inhibition, and numbers from -100% - 0 represent cell death. For example, a value of 40 represents 60% growth inhibition. […]
Compounds without any hit were thinned out: in the full panel of roughly 83,000, 20% have a hit. The source made the active and inactive calls. The calls were made as follows: active = growth percent below 10; inactive = the rest.
Assign a class; possible classes are 1 for active, 0 for inactive

Task item: Which outcome did this test record for the compound "CCOC(=O)c1cc2c(n1Cc1cc(OC)cc(OC)c1)-c1oncc1CCC2" ?
Reply: 0

Task item: Further, for "COc1cc(/C=C/C(=O)c2c(C)nc3ccccc3c2/C=C/c2ccccc2)cc(OC)c1OC" ?
Reply: 1

Task item: And the next one, "COC(=O)c1c2c(c(C)[n+]([O-])c1C)C(=O)C(NCc1ccc(Br)cc1)=CC2=O" ?
Reply: 0

Now consider a different compound.
Task item: What did this assay record as the result for "Nc1nc(-c2ccccc2Br)nn1-c1nc2ccccc2s1" ?
Reply: 0
